I'd be grateful if you could share measured log10 of Kd for these entries.
Biological target: T1, PUF4 RNA-binding domain (Saccharomyces cerevisiae, UniProt P25339 537-888)
T1 sequence: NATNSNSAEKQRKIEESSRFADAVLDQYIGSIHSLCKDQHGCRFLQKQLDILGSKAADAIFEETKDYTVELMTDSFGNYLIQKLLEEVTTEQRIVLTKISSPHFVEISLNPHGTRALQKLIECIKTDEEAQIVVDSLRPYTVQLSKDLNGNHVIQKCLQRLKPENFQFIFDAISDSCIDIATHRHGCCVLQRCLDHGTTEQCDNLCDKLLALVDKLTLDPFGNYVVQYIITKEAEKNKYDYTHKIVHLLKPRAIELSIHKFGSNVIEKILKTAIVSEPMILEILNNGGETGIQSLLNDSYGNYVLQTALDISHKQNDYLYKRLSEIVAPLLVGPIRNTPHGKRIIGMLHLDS
Experiment: Mg; RNA-MaP; 20 mM Na-HEPES pH 7.4, 30 mM KOAc, 0.75 mM MgCl2, 0.1% Tween-20, 5% glycerol, 0.1 mg/mL BSA, 2 mM DTT; 25 C; 0.0125-409.6 nM protein
Conditions: tags: N-His6-TEV cleaved; C-SNAP kept, Cy3B-labelled; label: tethered on chip by stalled RNA polymerase
The figures below represent log10 of Kd, where Kd is stated in nM.

Request: What value of measured log10 of Kd is listed for Ib_S4_P5E.1_K5.1_C5.1_H5.1_[T1C]_A5.1_[T6C]_F5.1_T5.1 (ssRNA) RNA: UUUGACAACUGAUCGUUCUUUCUCGUAUCAUUAUUCUUUCUCGAUCAGUUGUCUUU ?
Response: 2.80

Request: Could you tell me which log10 of Kd is on file for UCUCUUGCACACUUAUUAUAUCUCUU (ssRNA) [Id_ii_S1_P5E.4_K5.3_C5.2_[C-2G]_[T-1C]_H5.3_A5.1_F5.1_T5.2] ?
Response: 2.88

Request: // returns reported log10 of Kd for input UCUCUUUGUAUUAAAUCUCUU (ssRNA) [Ic_S1_P4E.1_K4.1_C4.1_H4.1_A4.1_[A6T]_[T7A]_F4.1_[T8A]_T4.1]
Response: 1.98

Request: Reported log10 of Kd, binder ACAAACUCUUAUAUAUACAACAAAC (ssRNA) [Id_iii_S3_P3E.6_K3.2_C3.3_H3.2_A3.1_F3.1_T3.2_[T9C]] : ____
Response: 2.84

Request: Suppose we examine the binder Ic_S2_P4E.1_K4.1_C4.1_H4.1_A4.1_[T5A]_[T7C]_F4.1_[T8A]_[A9G]_T4.1 (ssRNA) RNA: UUUGAUUAAUAUGAUAUCGUUCUUUCUUGUAAACAGUUCUUUCUCGAUAUCAUAUUAAUCUUU ; what log10 of Kd value has been reported?
Response: 3.06

Request: Please report the recorded log10 of Kd for Id_ii_S4_P4E.2_K4.1_C4.2_[C-2T]_[T-1A]_H4.1_A4.1_F4.1_T4.2 (ssRNA) RNA: UUUGACAACUGAUCGUUCUUUCUUAUGUAUAUUAGUUUCUUUCUCGAUCAGUUGUCUUU .
Response: -0.18

Attribution: paper PMC9352680
